# System: HOP-62 complex spheroids with HUVEC/MSC, viability
# ASSAY NOTES: Anticancer human tumor HOP-62 cell line growth inhibition [RAS];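 further: spheroids exposed to agents for seven days before readout; 100% = DMSO vehicle control viability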
# EXPERIMENTAL SETUP: second compound 0.0316 µM; first compound 0.000949 µM; active compounds read low
Recorded viability, T/C values for a group of compounds are listed next.
MEASURED METRIC: viability, T/C (%)

{"columns": ["COMPOUND", "UNIT STRING", "RECORDED VALUE"],
 "data": [
  ["CCc1c2c(nc3ccc(O)cc13)-c1cc3c(c(=O)n1C2)COC(=O)[C@]3(O)CC + C#Cc1c(F)ccc2cc(O)cc(-c3ncc4c(N5CC6CCC(C5)N6)nc(OCC56CCCN5CC(F)C6)nc4c3F)c12", "%", 56.3],
  ["CCc1c2c(nc3ccc(O)cc13)-c1cc3c(c(=O)n1C2)COC(=O)[C@]3(O)CC + C=CC(=O)N1CCN(c2nc(OCC3CCCN3C)nc3c(F)c(-c4nc(N)cc(C)c4C(F)(F)F)c(Cl)cc23)C(C)C1", "%", 42.5],
  ["CC1(C)CCC(Nc2ncc(C(F)(F)F)c(-c3c[nH]c4c(P(C)(C)=O)c(C#N)ccc34)n2)CN1 (centres undefined) + C#Cc1c(F)ccc2cc(O)cc(-c3ncc4c(N5CC6CCC(C5)N6)nc(OCC56CCCN5CC(F)C6)nc4c3F)c12", "%", 76.3],
  ["CC1(C)CCC(Nc2ncc(C(F)(F)F)c(-c3c[nH]c4c(P(C)(C)=O)c(C#N)ccc34)n2)CN1 (centres undefined) + C=CC(=O)N1CCN(c2nc(OCC3CCCN3C)nc3c(F)c(-c4nc(N)cc(C)c4C(F)(F)F)c(Cl)cc23)C(C)C1", "%", 45.2]
]}
